From: the supplement of paper PMC9170038

# Tested on: MS2 coat protein
# Assay Procedure: apparent KD of MS2 coat protein; higher = weaker reporter binding
# Recorded Conditions: Eterna round: R107; input ligand: theophylline 20 uM
Label scheme, based on apparent KD of MS2 coat protein: lower band = under 30 nM, central band = from 30 nM up to 100 nM, upper band = 100 nM and over

Monomer Sequence	Class Name
GCGGUCGGAGUGCGGCGUGUUCCGCUCCGUCGAGGACCGGUACGGCCGCCACUCGACAUGAGGAUCACCCAUGUCCGACCGCGCG [#1 Exclusion - Tryptophan A Attempt #5 (HarryS)]	central band
AAACGCCACGGAAGGAGCGACAUGAGGAUCACCCAUGUAGAUUUGGCGGAUGCACCCUCCUGUCAGGUAGGUCGCCGUGCGAUAA [XArg-B25]	upper band
AUGGUAGGACAGCACAUAUAAGCUUGUGAUACCAGCUAGAAAACUAGCCCUUGGCAGCACAUUACAUGAGGAUCACCCAUGUCCC [EThA NP+V+V2 #1]	central band
UGUUAUUUCCGAAGGAGCGGGAUACAUGAGGAUCACCCAUGUACAUGAGGAUCAACAUGAACCCAGGUAGGUCGCGGAUUUUGUC [Exclusion Arginine B 3]	upper band
UUUACAUGAGGAUCACCCAUGUGCCAUGAUACCAGACAUGAAAAUGUCCCUUGGCAGCAUGAAAGAUCCACGUCGGAAACGACGG [Krpole]	upper band
CGACGAUACCUGGAUACCAGCGACAUGAGGAUCACCCAUGUAUGUGGAUCAGCCAUGAUAUGCCCUUGGCAGCCACCAAAGUCGG [IIIMULLIN]	lower band
UUAUUUAUAAUGGAUACCAGUAUAAUGGCCGCAAAUCCUGACAUGAGGAUCACCCAUGUAUGCCCUUGGCAGCUGUUAUGGGUUU [XTheo B #23]	central band
AGUGUUAUAACUGAUACCAGACUUUUGCUUAUACAUGAGGAUCACCCAUGUAAAAUGGUUGUCCCUUGGCAGCAGAAAAUACACA [JR_SSTheophyB_Sub007]	upper band
GCUGCCAUACGAAGGAGCGCUGGUGUAAUGAGGCGAACAUGAGGAUCACCCAUGUGGCAGAAGCAGGUAGGUCGCGUAUGGCAGC [EAB #15]	lower band
GGACUAACCAGAAGGAGCGACGCGCAGAAACUGCAAAUUCCUCCACACGAGGAUCACCCGUGUCAGGUAGGUCGCUGGUUAGUCG	lower band
UCCAGACAUGAGGAUCACCCAUGUUGUGAUACCAGAACCGUGGAGUUCCCUUGGCAGCACUAAGAAGUUCCUGGAUCAGCUAGCG [theeternabot_sameState_MS2_Theo_A_9]	central band
UUUAAAAUAACAGAUACCAGCGUGUUAUAAAACAUGAGGAUCACCCAUGUAGUGAUCAAGCGCCCUUGGCAGCUGGUAUUUUAGG [7.E]	upper band
GGUCCCGUCGGAAGGAGCGACAUGAGGAUCACCCAUGUCUCCCGUUAUGGGAGUUCUUUAGGUCAGGUAGGUCGCCGGCGGGAGC [#1 Exclusion - Arginine B Attempt #15 (Inspired by Omei)]	upper band
AGGUGACAUGAGGAUCACCCAUGUGGCUUACGAGGACCGGUACGGCCGCCACUCGGUGUGACCUCCGCAUUCACAUAAUAAUCUU [Rilala]	upper band
GGUUACUCUACGGCCGCCACUGGGCAUGUAAAUAACAUGAGGAUCACCCAUGUGGAAUAAAAUUACAGGACCGGGUAGUGUAACC [Tryptophan B 22]	upper band
UAUAUAUAUAUGGAUACCAGCAGAGAAAACGUUUAUCCUAACAUGAGGAUCACCCAUGUAUGCCCUUGGCAGCUGUGUAUAUAUA [8.H]	lower band
AGACUGUAAAGUCUACCGGUCAACAAUAAUCGAGGACCGGUACGGCCGCCACUCGAUGUGAUAUACACAUGAGGAUCACCCAUGU [Tryptophan A 16]	lower band
UAAACUACACAUGAGGAUCACCCAUGUGGCCGAGGACCGGUACGGCCGCCACUCGUGUGUUAAUAAUAGAACUGCAAGGUUCUGU [Enindidiso]	upper band
GCACCAGGUACGGAUACCAGCUGCCAGCGUUACAUGAGGAUCACCCAUGUGAUCUGAUAUAGCCCUUGGCAGCUGUACCUGGUGC [SSThB NP+V+V2 #3 +-Same Structure]	upper band
UGACAUUGCUCAGAUACCAGACAUGAGGAUCACCCAUGUGCCAACGUACAAAUAAUAAAUGUCCCUUGGCAGCUGAGCAAUGUCU [TheoBX 15 #MS2Left #Theo2]	lower band
AACCACAUGAGGAUCACCCAUGUGACCGCUCGAGGACCGGUACGGCCGCCACUCGUGGAGGGACUUAUGCGUUAUCCGGGUAAAU [theeternabot_sameState_MS2_Trp_A_29]	lower band
CGGUUUGUGAUGGAUACCAGCAGAGAAAACGUUUAUCCUAACAUGAGGAUCACCCAUGUAUGCCCUUGGCAGCUGUUGUGGGCUG [8.U]	central band

###

# Tested on: MS2 coat protein
# Assay Procedure: apparent KD of MS2 coat protein; designed switch direction (-1 OFF switch, 1 ON switch): -1; higher = weaker reporter binding
# Recorded Conditions: Eterna round: R95; input ligand: none
The threshold is inclusive: apparent KD of MS2 coat protein of exactly 30 nM counts as fulfilled; values below receive not fulfilled.

Monomer Sequence	Test Target	Class Name
GAAAAGGUAGGAUAUGCGAAAAAAAAGGGUAGAAAAAAAACACAUGAGGAUCACCCAUGUAGAAGGACCAAAAG [salish99_ex2_r3_031] (puzzle: Exclusion 2)	MS2 coat protein	fulfilled
GGUCUGCGAGGAUAUACAUGAGGAUCACCCAUGUGAGUGAUACUAGUGAGGUCGAUUGGUAGAAGGCGCGGACG [JL-ex3-2.05 salish99 mod] (puzzle: Exclusion 3)	MS2 coat protein	fulfilled
AGUAGUUGUUUCCGUUCUUACAUGAGGAUCACCCAUGUUUCUUGUCGUGCUCGCGAUGCUCGUCAGACUACCAGAUG [salish99_TOv1_r3_059] (puzzle: Sensor v3, turn-off variant 1)	MS2 coat protein	fulfilled
ACCUCACAUGAGGAUCACCCAUGUCAGGAUAUACAAGAAAAUAACCGGAAAGAACGGAGUAGAAGGGACAUAAG [Zatigeri] (puzzle: Exclusion 1)	MS2 coat protein	not fulfilled

###

# System: MS2 coat protein
# Assay Procedure: apparent KD of MS2 coat protein; designed switch direction (-1 OFF switch, 1 ON switch): -1; higher = weaker reporter binding
# Recorded Conditions: Eterna round: R95; input ligand: microRNA oligo, concentration not stated
# apparent KD of MS2 coat protein listing for each entry below

Monomer Sequence	Test Target	apparent KD of MS2 coat protein
GAGCAGGAAGGAUAUACAUGAGGAUCACCCAUGUACCAUCAAGGCUUUGAUUUUCACGGUAGAAGGUCCCAAUA [Sotece] (puzzle: Exclusion 3)	MS2 coat protein	34.8 nM
AAAUCUGCUGAGGAUAUGAUGACUGAGAGGUCAUCAGAAGGCGGUACAUGAGGAUCACCCAUGUCUAUGGGCAA [Ex-6 Malc#30] (puzzle: Exclusion 6)	MS2 coat protein	243 nM
CGUGCGUAUGUGAGGAUAUGCUGGUCCUUGGAUCAGCAGAAGGCACAUGAGGAUCACCCAUGUGGUGUCGUACC [salish99_Bmod_Ex4_001] (puzzle: Brourd's mod of Exclusion 4)	MS2 coat protein	170 nM
AAGUACCGUCACGAAAGUGAUGGUACAGCAAGUAAAUGUACAUGAGGAUCACCCAUGUCCUCAAUUGCUCGUCUUAU [Sensor 3 - 59] (puzzle: Sensor v3, turn-off variant 2)	MS2 coat protein	173 nM
GGUUGACAUGAGGAUCACCCAUGUGAGGAUAUGCGAGAGAAAAAAGUGAGGAAGAUAAGCAGAAGGCGCUGUCG [salish99-ex1_r3_013] (puzzle: Exclusion 1)	MS2 coat protein	178 nM
UAUUACCUAGGAUAUACAUGAGGAUCACCCAUGUCACGGGUCAACUUGUCCUAUGCGUGUAGAAGGAGGGACCC [JL Ceriza mod 6] (puzzle: Exclusion 3)	MS2 coat protein	18.9 nM
UUUUAACAUGAGGAUCACCCAUGUGAGGAUAUCGAAAUUUAUAUUAAUAUUUAUUAUUCGAGAAGGCACAUUUU [JMF 61] (puzzle: Exclusion 1)	MS2 coat protein	119 nM
GUGUAGGGAGGAUAUACAUGAGGAUCACCCAUGUGAAUAAGAUAGAAUAAGAUAAAGUGUAGAAGGCUUAGUGU [Excluse me!!! 24 - Jieux - Exclusion 3] (puzzle: Exclusion 3)	MS2 coat protein	53 nM
UUACAAUGUCACUUACAAGCUUUUUGCUCGUCUUAUAUUACAUGAGGAUCACCCAUGUAGAUCAUGUGGCGUGACCU [JL ViennaUCT Maridi mod 10] (puzzle: Sensor v3, turn-off variant 2)	MS2 coat protein	46.7 nM
AGAAGUAGAAACCGAUCCUACAUGAGGAUCACCCAUGUAGCAAGACGUGCACGCGAAGCUCGUCAGACUACCAGAAU [salish99_TOv1_r3_006] (puzzle: Sensor v3, turn-off variant 1)	MS2 coat protein	193 nM
GGUACUAACACGGAAGUGUUAGUACUAUAAGCUUGUGUUACAUGAGGAUCACCCAUGUCCUCAUAAGCUCGUCUUAU [Mat - Sensor v3 - Turn-off var 2 - D75] (puzzle: Sensor v3, turn-off variant 2)	MS2 coat protein	38.1 nM
CAGUACUGAGGAUAUACAUGAGGAUCACCCAUGUGUUCCAGCUUGGAAACUAGCAAAAGUAGAAGGCAGUACUG [salish99_ex3_r3_097x] (puzzle: Exclusion 3)	MS2 coat protein	16.6 nM
CUUUAGUGAGGAUAUCGGUAGUAAUACAAUAGUAUUACUACUGAGAAGGCACAUGAGGAUCACCCAUGUUCCUC [Mat - Exclusion 4 - Mod of Omei - D82] (puzzle: Exclusion 4)	MS2 coat protein	30.2 nM
CGAGUGUAAGGAUAUUCGGCGCCAGAGAACGAUCUGACGUAGAAGAAGGUACAUGAGGAUCACCCAUGUGGUUA [Geinzarace] (puzzle: Exclusion 4)	MS2 coat protein	102 nM
GUUAAACAUGAGGAUCACCCAUGUAAGGAUAUGCUGCGGUCGAGAUGAAGUGAAUGCAGCAGAAGGUACAAUUG [Mat - Mod of JL D53] (puzzle: Exclusion 1)	MS2 coat protein	148 nM
AAUAAUAAGGAGGAUAUCGUAUCCGAAAGGAUACGAGAAGGCCUAACAUGAGGAUCACCCAUGUUCCUCAAUAA [Mat - Exclusion 6 - Eli Mod - D54] (puzzle: Exclusion 6)	MS2 coat protein	264 nM
GGCCCUAAGGUCAGAUUCACAAGCUUUUUGCUCGUUUUAACAUGAGGAUCACCCAUGUCUAGUGGAUUUGAUCCUUA [Sensor v3, turn-off variant 2 (MOD of Indiso v.7)] (puzzle: Sensor v3, turn-off variant 2)	MS2 coat protein	20 nM
AUUGUUGUUGUGAGGAUAUCGUUGAUUUUUUGAAACGAGAAGGCACAUGAGGAUCACCCAUGUUAGUUGUUGGU [JR_BMOE4_Sub057] (puzzle: Brourd's mod of Exclusion 4)	MS2 coat protein	77.3 nM
CCUGCACAUGAGGAUCACCCAUGUCAGGAUAUCUCGCCGCGAAGAGCAACACGGUAUUAGAGAAGGGACACGGG [Bimavees] (puzzle: Exclusion 1)	MS2 coat protein	24.5 nM
ACAACAAGCUUUUUGUUCGUAGAACAUGAUGCUCUAGUCACAUGAGGAUCACCCAUGUCAACUAGAUAGAUAGUUGA [JR_SV3TOV2_Sub062] (puzzle: Sensor v3, turn-off variant 2)	MS2 coat protein	95.7 nM
